# SYSTEM NAME: T1, Human soluble IL-6R (human, UniProt P08887 20-358)
# T1 construct: Soluble recombinant form; biotinylated in some assays; also called hIL-6R; human IL-6R
# T1 sequence (looked up): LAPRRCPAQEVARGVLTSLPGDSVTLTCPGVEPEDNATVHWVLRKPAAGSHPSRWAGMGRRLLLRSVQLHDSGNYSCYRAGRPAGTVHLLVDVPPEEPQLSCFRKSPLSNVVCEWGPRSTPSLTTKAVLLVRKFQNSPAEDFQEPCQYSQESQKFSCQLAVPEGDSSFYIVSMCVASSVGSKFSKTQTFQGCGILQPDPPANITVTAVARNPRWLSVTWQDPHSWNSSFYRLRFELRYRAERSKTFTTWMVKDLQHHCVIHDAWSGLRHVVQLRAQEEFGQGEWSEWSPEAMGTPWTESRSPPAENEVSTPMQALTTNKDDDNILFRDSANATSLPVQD
# TEST METHOD NOTES: SPR Biacore 3000, IL-6R amine-coupled to CM5
QUANTITY MEASURED: koff
Enter the number, and then the unit.

IL6R07 (VHH, also called PMP33A3; not shown: C-terminal c-myc and (His)6 tags) VHH: EVQLVESGGGLVQPGGSLRLSCAASGFTLDYGAIGWFRQAPGKEREGVSCISSSTGSTYYADSVKGRFTISRDNGKNTVYLQMNSLKPEDTAVYYCAADKMWSPCLVAANEEALFEYDYWGQGTQVTVSS | 0.000242 s⁻¹
IL6R08 (VHH, also called PMP34A12; not shown: C-terminal c-myc and (His)6 tags) VHH: EVQLVESGGGLVQPGGSLRLSCVASGFSLDYYVIGWFRQAPGKEREGVSCISSSDGSTYYADSVKGRFTISRDNAKNTVYLQMNSLKPEDTAVYYCAADLLRTPEFCVDSAPYDYWGQGTQVTVSS | 0.00197 s⁻¹

Q: Quick one: koff for IL6R02 (VHH, also called PMP30C11; not shown: C-terminal c-myc and (His)6 tags) VHH: EVQLVESGGGLVQAGGSLRLSCAASGRTFSSYDMGWYRQAPGKEREFVAVISRSGSSTYYADSVKGRFTISRDNAKNTVYLQMNSLKPEDTAIYYCKAEVVAGDYDYWGQGTQVTVSS ?
Ans: 0.00294 s⁻¹

Q: Quick one: koff for IL6R01 (VHH, also called PMP28E11; not shown: C-terminal c-myc and (His)6 tags) VHH: EVQLVESGGGLVQPGGSLRLSCAASGFPLDYYAIGWFRQAPGKEREGVSCISSSDGSTYYADSVKGRFTISRDNAKNTVYLQMNSLKPEDTAVYYCALVHTTAQATGVPQREYEYEWWGQGTQVTVSS ?
Ans: 0.00011 s⁻¹

Q: Quick one: koff for IL6R06 (VHH, also called PMP32E2; not shown: C-terminal c-myc and (His)6 tags) VHH: EVQLVESGGGLVQAGGSLRLSCAASGNIFDDNTMGWTWNRQPPGKQRELVAIIATDGSTNYADSVKGRFTISRDNAKNTVYLQMNSLKPEDTAVYYCNLFSLRLGRDYWGQGTQVTVSS ?
Ans: 0.00757 s⁻¹
